Experiment: chemical genetic growth profiling, strain panel (AID 1159580);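 also: tested at 20 µM; growth read once vehicle control cultures reached saturation at 30 °C; 1 = growth at the plate median or of vehicle wells; lower values mean less growth of the strain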
Details: S. cerevisiae deletion strains, growth OD, locus YJL134W, strain LCB3, stronger effect = lower value
About 2,000 (36%) of roughly 5,500 compounds were called active. Another 18% or so got no clear call; they are omitted. Some of the results follow.
reported_metric: normalized growth
Format: numeric value only, no unit, no commentary.

Please review the following examples before continuing.
[
  {
    "compound": "O=C(O)c1cc2cc(F)ccc2[nH]1",
    "reported_metric": "normalized growth",
    "val": 1.01
  },
  {
    "compound": "CC(=O)Oc1cc(OC(C)=O)c2c(c1)O[C@H](c1ccc(OC(C)=O)c(OC(C)=O)c1)[C@@H](OC(C)=O)C2",
    "reported_metric": "normalized growth",
    "val": 0.997
  },
  {
    "compound": "COc1ccc2c(c1)OC1(O)COc3cc(OC)c(OC)cc3C1=C2 (stereo unspecified)",
    "reported_metric": "normalized growth",
    "val": 1
  },
  {
    "compound": "O=C(Oc1cc(O)cc2c1C[C@@H](OC(=O)c1cc(O)c(O)c(O)c1)[C@@H](c1cc(O)c(O)c(O)c1)O2)c1cc(O)c(O)c(O)c1",
    "reported_metric": "normalized growth",
    "val": 0.551
  },
  {
    "compound": "COc1ccc(OC)c(C(O)CNC(=O)CN)c1 (stereo unspecified)",
    "reported_metric": "normalized growth",
    "val": 0.991
  }
]

Below: the item to evaluate.
Identify normalized growth associated with the compound COc1cc(CNC(=O)CCCC/C=C/C(C)C)ccc1O
1.01

###

Experiment: chemical genetic growth profiling, strain panel (AID 1159580);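 also: tested at 20 µM; growth read once vehicle control cultures reached saturation at 30 °C; 1 = growth at the plate median or of vehicle wells; lower values mean less growth of the strain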
Conditions: S. cerevisiae deletion strains, growth OD, locus YER167W, strain BCK2
About 2,000 (36%) of roughly 5,500 compounds were called active. Not shown: some 18% with an inconclusive outcome. Rule as the data show it: active = normalized growth mostly below about 0.91 (no sharp cut-off); inconclusive = no clear call, values can overlap the other calls; inactive = mostly above about 0.92. This is one part of the list.
Could you please pick one outcome from this set? active, inactive

For orientation, consider the following solved cases.
[
  {
    "compound": "O=C(Oc1cc(O)cc2c1C[C@@H](OC(=O)c1cc(O)c(O)c(O)c1)[C@@H](c1cc(O)c(O)c(O)c1)O2)c1cc(O)c(O)c(O)c1",
    "assigned_label": "active"
  },
  {
    "compound": "CC(=O)Oc1cc(OC(C)=O)c2c(c1)O[C@H](c1ccc(OC(C)=O)c(OC(C)=O)c1)[C@@H](OC(C)=O)C2",
    "assigned_label": "inactive"
  }
]

# ---- query compound ----
Hey, what did the test say about C=CCc1ccc(O)c(OC)c1 ?
inactive

###

Experiment: chemical genetic growth profiling, strain panel (AID 1159580);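 also: tested at 20 µM; growth read once vehicle control cultures reached saturation at 30 °C; 1 = growth at the plate median or of vehicle wells; lower values mean less growth of the strain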
Details: S. cerevisiae deletion strains, growth OD, locus YGR252W, strain gcn5
The whole screen tested about 5,500 compounds, of which about 2,000 (36%) were called active. Not shown: some 18% with an inconclusive outcome. Rule as the data show it: active = normalized growth mostly below about 0.91 (no sharp cut-off); inconclusive = no clear call, values can overlap the other calls; inactive = mostly above about 0.92. The list shows a part of the results.
Could you please pick one outcome from this set? TRUE = active, FALSE = inactive

[
  {
    "molecule": "CNC(=O)O/N=C(\\C)SC",
    "assigned_label": "FALSE"
  }
]

Hey, what did the test say about COc1ccc2c(c1)OC/C(=C\c1ccc(OC)c(O)c1)C2=O ?
TRUE

Hey, what did the test say about COc1c(N2CCNC(C)C2)c(F)cc2c(=O)c(C(=O)O)cn(C3CC3)c12 (centres undefined) ?
FALSE

Hey, what did the test say about Clc1ccc(C(OCCN2CCCCC2)c2ccccc2)cc1 (centres undefined) ?
FALSE

Hey, what did the test say about CC[C@@H](C(=O)C(C)[C@@H](O)[C@H](C)CCc1ccc(C)c(O)c1C(=O)O)C1OC(CC)(C2CC[C@](O)(CC)[C@H](C)O2)C[C@@H]1C (some centres undefined) ?
FALSE

Hey, what did the test say about COc1ccc(C(=O)O)cc1OC ?
FALSE

Hey, what did the test say about O=S(=O)(O)CCS ?
FALSE

Hey, what did the test say about C[C@]12CCC(=O)C=C1C=CC1C2CC[C@@]2(C)C1CC[C@@]21CCC(=O)O1 (some centres undefined) ?
FALSE

Hey, what did the test say about COc1ccc(C(=O)CC(=O)O)c2c1C=CC(C)(C)O2 ?
FALSE
